The measurements presented in this section are drawn from PubChem BioAssay (NCI).

# System: LOX IMVI melanoma
# test.description: NCI-60 one-dose screen, 48 h
# experimental.parameters: 10 µM unless noted
About 83,000 compounds went through this panel and 20% of them were active in at least one assay; those are over-represented in the sample as a whole. Active and inactive are the calls of the source. Rule for the calls: active = growth percent below 10; inactive = the rest.
Permitted responses: active, inactive

For orientation, consider the following solved cases.
CN1CCN(c2ccc(NC(=O)c3nc4ccc5[nH]ncc5c4c4c3CCCC4)cc2C(F)(F)F)CC1 = active
O=C(Cc1ccccc1)Nc1nc(O)c(/C=C2\C(=O)C=Cc3ccccc32)s1 = inactive
O=C(OCc1ccc2c(Cl)cc(Cl)c(O)c2n1)n1cncn1 = active
Cc1ccc2c3c(c(=O)[nH]c2c1)C1(C(C#N)=C(N)O3)c2cc(Br)ccc2-c2ccc(Br)cc21 = active

Hi team, can someone confirm the assay call for Cc1cc(N)c2cc(NC(=O)/C=C\c3ccccc3Cl)ccc2n1 ?
active

* * *

# Test system: UACC-62 melanoma
# test.description: NCI-60 one-dose screen, 48 h
# experimental.parameters: 10 µM unless noted
This is part of a sample that, as a whole, favours compounds with a hit. Of some 83,000 tested, about 20% had one in any assay. Activity calls are given as the source filed them. The calls were made as follows: active = growth percent below 10; inactive = the rest.
Permitted responses: yes (active), no (inactive)

For orientation, consider the following solved cases.
CC(=O)[C@@H]1CCC=C2CC[C@]3(C)[C@@H](CC[C@@H]4[C@@]5(C)CCCNC(C)(C)[C@@H]5CC[C@]43C)[C@H]21 = yes
C=CC(=O)NCc1ccc(Nc2nccc(-c3ccc(N4CCCC4)c(C#N)c3)n2)cc1 = no

Hi team, can someone confirm the assay call for CN1C(=O)/C(=C/c2ccc(C(=O)Nc3ncc(Cc4ccc(Cl)cc4)s3)cc2)SC1=S ?
no

Hi team, can someone confirm the assay call for O=C(COc1ccc(-c2nc3ccccc3[nH]2)cc1)N=Nc1c(O)[nH]c2ccc(Cl)cc12 ?
no

Hi team, can someone confirm the assay call for COc1ccc(-c2nc(SCC(C)C)nc(N/N=C\c3ccc(F)cc3)c2C#N)cc1 ?
no

Hi team, can someone confirm the assay call for CC(C)=CCC[C@](C)(O)[C@H]1CC[C@]2(C)[C@@H]1CC[C@@H]1[C@@]3(C)Cc4nccnc4C(C)(C)[C@@H]3CC[C@]12C ?
no

Hi team, can someone confirm the assay call for C#Cc1ccc(NC(=O)c2ccc(/C=C/C(=O)c3nccn3C)cc2)cc1 ?
yes

* * *

# Tested on: OVCAR-8 ovarian
# test.description: NCI-60 one-dose screen, 48 h (100 = growth as untreated, 0 = no growth, -100 = all killed)
# experimental.parameters: 10 µM unless noted
This is part of a sample that, as a whole, favours compounds with a hit. Of some 83,000 tested, about 20% had one in any assay.
readout.type: growth (%)
# value in %; strip the unit string

Solved entries (count: 4):
Cc1ccc(C2=Nc3c(N)ncnc3NC(c3ccc4c(c3)OCO4)C2)cc1 (stereo not given) = 81
CC1=Nc2cnc(Nc3ccc(OCCN4CCCCC4)cc3)nc2Nc2ccccc21 = 72.9
O=C(c1ccc(-c2nc(CSc3nc4ccccc4s3)no2)cc1)N1CCSCC1 = 43
COc1cc2c(c(OC)c1OC)CCC(c1cccc(C(=O)Nc3cccc(Br)c3)c1)O2 (stereo not given) = 81.1

From here, focus on the item given below.
Kindly note the recorded growth for O=C1NC(=O)c2c1c1c3ccccc3ccc1c1[nH]c3ccc(Br)cc3c21 , which is 14.7
